Target: UniProt:Q70CQ3
Sequence (Q70CQ3 whole entry, looked up): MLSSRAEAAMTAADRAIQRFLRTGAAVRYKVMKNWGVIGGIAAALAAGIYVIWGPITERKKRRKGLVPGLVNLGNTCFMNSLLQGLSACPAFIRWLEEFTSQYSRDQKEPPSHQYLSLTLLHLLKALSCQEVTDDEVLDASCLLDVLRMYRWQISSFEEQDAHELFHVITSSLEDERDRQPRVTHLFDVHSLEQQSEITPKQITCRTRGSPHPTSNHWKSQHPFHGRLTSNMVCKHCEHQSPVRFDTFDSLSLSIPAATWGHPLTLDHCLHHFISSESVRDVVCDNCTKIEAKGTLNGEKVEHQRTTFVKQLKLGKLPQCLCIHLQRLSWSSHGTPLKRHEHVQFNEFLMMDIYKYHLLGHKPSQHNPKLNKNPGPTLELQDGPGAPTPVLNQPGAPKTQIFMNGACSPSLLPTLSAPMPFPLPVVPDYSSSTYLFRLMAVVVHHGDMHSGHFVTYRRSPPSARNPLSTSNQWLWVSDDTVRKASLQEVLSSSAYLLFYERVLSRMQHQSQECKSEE
Assay: inhibitors of ubiquitin-specific protease 30 deubiquitylating enzyme, concentration dependence, in vitro biochemical, validation of primary hits (AID 1645865)
Conditions: purified USP30, Ub-rhodamine cleavage, fluorescence, 2 h
Calls of active or inactive are those of the source.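 Rule for the calls: active = maximal inhibition of the USP30 enzyme reaching 30% or more across the dose series; inactive = the rest.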
Labels: class 1 = active, class 0 = inactive

{"columns": ["compound", "group"],
 "data": [
  ["COc1ccc(NC(=O)c2nnn(-c3ccccc3)c2C)cc1OC", "class 0"],
  ["COc1ccccc1CNC(=O)CCCCn1c(=O)c2ccccc2n(Cc2ccccc2C#N)c1=O", "class 1"],
  ["CC(NC(=O)c1ccccc1)c1nc2ccccc2n1CC(=O)Nc1ccc2c(c1)OCO2 (stereo unspecified)", "class 1"],
  ["O=C1C=CC(O)C2C1CC13SSC4(CC5C(=O)C=CC(O)C5N4C1=O)C(=O)N23 (stereo unspecified)", "class 1"],
  ["Cc1oc(-c2ccc(C(=O)NCC3COCCO3)cc2)nc1CN1CCc2ccccc21 (stereo unspecified)", "class 0"],
  ["CC(C)CCN1C(=O)C2C(C(=O)Nc3ccc(Oc4ccccc4)cc3)C3C=CC2(O3)C1C(=O)NC1CCCCC1 (stereo unspecified)", "class 1"],
  ["COc1ccc(-c2cc(C(=O)N3CCN(c4ccc([N+](=O)[O-])cc4)CC3)[nH]n2)cc1", "class 0"],
  ["Cc1nc2ccc(NC(=O)COc3ccccc3[N+](=O)[O-])cc2s1", "class 1"],
  ["CC1=CC(=O)C(C2=C(O)C(=O)C(C)=CC2=O)=C(O)C1=O", "class 1"],
  ["COc1ccc(-c2nc(C)c(C(=O)NCc3ccc(S(N)(=O)=O)cc3)s2)cc1", "class 0"],
  ["CC(=O)c1sc(NC(=O)c2ccccc2-c2ccc(C(F)(F)F)cc2)nc1C", "class 1"],
  ["COc1ccc(C(=O)Nc2cc(-c3ccccn3)no2)cn1", "class 0"],
  ["COC(=O)CC1CC23OC2(C(=O)c2c(O)cccc2C3=O)C(C)O1 (stereo unspecified)", "class 0"],
  ["O=C(Cc1cccs1)Nc1cc(F)c2nc(N3CCOCC3)ccc2c1", "class 0"],
  ["O=C(Nc1ccc(Br)cn1)c1nc2ccccc2nc1N1CCCCC1", "class 0"],
  ["CC1Cc2ccccc2N1C(=O)Cn1c(=O)cc(O)c2ccccc21 (stereo unspecified)", "class 0"],
  ["COC(=O)c1cc(C)sc1NC(=O)c1cccc(OC)c1OC", "class 0"],
  ["Cc1nn(-c2cccc(F)c2)c2c1C(C(=O)c1ccc(Cl)s1)CC(=O)N2 (stereo unspecified)", "class 1"],
  ["O=C(COc1ccccc1-c1nnc(-c2ccccc2)o1)Nc1ccc(F)cc1F", "class 1"],
  ["CC(C)OC(=O)c1cc2c(ccn2-c2ccc(F)cc2)n1CC(=O)NC1CCCCC1", "class 0"],
  ["Cc1cc(C)c2sc(N(CCCn3ccnc3)C(=O)Cc3ccccc3)nc2c1", "class 1"],
  ["CCOC(=O)c1ccc(NC(=O)C[n+]2cc(-c3ccc(Cl)cc3)n3c2CCC3)cc1", "class 1"],
  ["CCOc1ccc2cc3c(nc2c1)OC(=O)N(Cc1ccc(C)o1)C3", "class 1"],
  ["COc1ccc(/C=C/C(=O)Nc2c3c(nc4c2CCC4)CCCC3)cc1", "class 1"],
  ["CCOC(=O)c1ccc(S(=O)(=O)N2CCC(C(=O)OC(C)C(=O)Nc3cccc([N+](=O)[O-])c3)CC2)cc1 (stereo unspecified)", "class 1"],
  ["Cc1c(C)n(-c2ccccc2)c2ncn(CC(=O)N(C)Cc3ccccc3)c(=O)c12", "class 0"],
  ["O=C(Nc1cccc2ccccc12)C1CCCN(S(=O)(=O)Cc2ccccc2)C1 (stereo unspecified)", "class 1"],
  ["CCOC(=O)c1cn(C2CC2)c2cc(N3CCNCC3)c([N+](=O)[O-])cc2c1=O", "class 0"],
  ["CCCCc1nc2sc3c(SCC(=O)NCc4ccccc4)ncnc3c2c2c1CCC2", "class 0"],
  ["CCOc1ccccc1-c1nc(-c2nnn(Cc3ccccc3)c2C)no1", "class 0"],
  ["O=c1oc2ccccc2c2nn(-c3ccccn3)cc12", "class 1"],
  ["O=C(CN1CCCc2ccccc21)Nc1ccc(N2CCOCC2)cc1", "class 0"],
  ["Cc1nc(-c2ccccn2)sc1C(=O)Nc1ccc(C#N)cc1", "class 0"],
  ["COc1ccc(NC(=O)Nc2cccc(-c3nnc(-c4ccccc4)o3)c2)cc1OC", "class 1"],
  ["Cc1nc(Nc2ncc(C)s2)cc(C2CN(C(=O)Cc3ccccc3)CCO2)n1 (stereo unspecified)", "class 1"],
  ["O=C(Cn1ccc2ccc(N3CCOCC3)nc21)NCc1ccccc1F", "class 0"],
  ["Cc1ccc(NC(=O)c2nnn(-c3ccccc3)n2)cc1F", "class 0"],
  ["CC1(C)C[C@@H](O)[C@]2(C)CC[C@]3(C)C(=CCC4[C@@]5(C)CC[C@H](O)[C@](C)(CO)[C@@H]5CC[C@]43C)[C@@H]2C1 (stereo partly specified)", "class 1"],
  ["Cc1ccc2c(c1)c(=O)c(C(=O)c1ccc(F)cc1)cn2CC(=O)Nc1ccc2c(c1)OCCO2", "class 0"],
  ["COCC(C)Nc1ncc(-c2cnccn2)c(-c2ccc(C)s2)n1 (stereo unspecified)", "class 0"],
  ["Cc1cc(C)n(-c2cccc(C(=O)Nc3ccc4c(c3)CCN4S(C)(=O)=O)c2)n1", "class 0"]
]}
